All figures here come from ChEMBL document CHEMBL3433997.

Target or test system: Hexose transporter 1 (Plasmodium falciparum) (UniProt O97467)
Assay info: ST_JUDE_LEISH: Cytotoxicity at 2uM final concentration against transgenic Leishmania Mexicana promastigotes LmPfHT that are glucose transport deficient and complemented with the Plasmodium falciparum hexose transporter. Activity is measured by DNA content using SYBR green in vitro
Assay type: functional
Here, each record is paired with measured inhibition data.
I only need the number, in %, no unit after it.

INSERT INTO results (compound, target_or_test_system, recorded_endpoint, value_units, val) VALUES
  ('CC(Oc1c(C2CCN(CCCCNC(=O)c3ccc(-c4ccc(Cl)cc4)cc3)CC2)ccc2c1CCCC2)C(N)=O (stereo not drawn)', 'Hexose transporter 1 (Plasmodium falciparum) (UniProt O97467)', 'inhibition', '%', -0.36);

## Task Value lookup for inhibition; key = CN1CCN(c2ccnc3cc4c(cc23)N(C(=O)Nc2ccc(-c3ccncc3)c3ccccc23)CC4)CC1
## Result 2.26

## Task Value lookup for inhibition; key = CC(C)[C@H](NC(=O)NC1CCC(CCN2C3CCC2CC(OC(=O)C(CO)c2ccccc2)C3)CC1)C(O)(c1ccccc1)c1ccccc1 (stereo partly drawn)
## Result 3.92

## Task Value lookup for inhibition; key = CN1CCN(CCCN(Cc2csc(-c3ccc(CNCc4ccccc4)cc3)n2)C(=O)Nc2cc(Cl)cc(Cl)c2)CC1
## Result 6.74

## Task Value lookup for inhibition; key = CC(C)c1ccc(NC(S)=NN=Cc2ccccn2)cc1
## Result 88.5

## Task Value lookup for inhibition; key = CC(C)CNCc1cccc(-c2ccc(CNc3ccc4ncccc4c3)cc2)c1
## Result 1.19

## Task Value lookup for inhibition; key = c1ccc(CN2CCCN(c3ccc4c(c3)CCN(Cc3ccc(-c5ncc[nH]5)cc3)CC4)CC2)cc1
## Result 3.96

## Task Value lookup for inhibition; key = CCCCCCCc1c(C)nc2cc(OC)ccc2c1O
## Result 9.59

## Task Value lookup for inhibition; key = COc1cccc(CN2CCC(C(=O)Nc3ccc(-c4nc5ccccc5[nH]4)cc3)CC2)c1
## Result 32.9

## Task Value lookup for inhibition; key = O=C(Nc1ccc(-c2nc3ccccc3[nH]2)cc1)c1cncc(Br)c1
## Result 2.44

## Task Value lookup for inhibition; key = Cc1cc(NCCC(=O)NCc2cccc(F)c2)nc(Nc2ccccc2)n1
## Result 7.08
